Kindly supply the reported pIC50 values for the records listed here.
biological target: Recombinant STAT3 protein (STAT3(G127-I722)) (Homo sapiens); construct: Recombinant STAT3 protein (STAT3(G127-I722)); test: STAT3 Fluorescence Polarization (FP) Assay; details: STAT3(G127-I722) 25 nM, probe 5-FAM-GpYLPQTV-NH2 2 nM, 45-minute incubation
Sequence (P40763 127-722): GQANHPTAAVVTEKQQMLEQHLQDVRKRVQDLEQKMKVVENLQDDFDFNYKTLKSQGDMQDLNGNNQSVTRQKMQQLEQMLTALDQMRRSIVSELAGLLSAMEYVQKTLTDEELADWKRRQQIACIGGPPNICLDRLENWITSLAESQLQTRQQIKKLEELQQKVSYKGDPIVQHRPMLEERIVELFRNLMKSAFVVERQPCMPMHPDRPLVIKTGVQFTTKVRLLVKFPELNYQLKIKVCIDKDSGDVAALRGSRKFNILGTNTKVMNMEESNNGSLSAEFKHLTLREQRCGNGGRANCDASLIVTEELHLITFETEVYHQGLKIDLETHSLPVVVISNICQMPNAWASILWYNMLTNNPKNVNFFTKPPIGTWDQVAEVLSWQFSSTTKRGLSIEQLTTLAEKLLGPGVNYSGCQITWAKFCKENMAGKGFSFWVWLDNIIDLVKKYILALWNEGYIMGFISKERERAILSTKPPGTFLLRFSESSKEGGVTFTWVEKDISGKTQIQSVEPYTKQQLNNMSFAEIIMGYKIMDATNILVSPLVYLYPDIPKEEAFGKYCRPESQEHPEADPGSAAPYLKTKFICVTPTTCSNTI
pIC50: −log10 of the molar value.

See these solved cases before continuing.
{"COMPOUND": "O=C(N[C@H]1CN(C(=O)OCc2ccccc2)CC[C@H]2CC[C@@H](C(=O)Nc3ccc(-c4ccccc4)cc3)N2C1=O)c1cc2cc(C(F)(F)P(=O)(O)O)ccc2s1", "READING": "5.00 to 6.00"}
{"COMPOUND": "CC(=O)N1CC[C@H]2CC[C@@H](C(=O)Nc3ccn(-c4ccccc4)c(=O)c3C#N)N2C(=O)[C@@H](NC(=O)c2cc3cc(C(F)(F)P(=O)(O)O)ccc3[nH]2)C1", "READING": "6.00 to 7.00"}
{"COMPOUND": "CC(=O)N1CC[C@H]2CC[C@@H](C(=O)Nc3ccc4onc(C)c4c3)N2C(=O)[C@@H](NC(=O)c2cc3cc(C(F)(F)P(=O)(O)O)ccc3s2)C1", "READING": "6.00 to 7.00"}

Provide pIC50 values for the following items, in order.
1. CC(=O)N1CC[C@H]2CC[C@@H](C(=O)Nc3ccc(-c4ccccc4)cc3CC#N)N2C(=O)[C@@H](NC(=O)c2cc3cc(C(F)(F)P(=O)(O)O)ccc3s2)C1
2. CC(=O)N1CC[C@H]2CC[C@@H](C(=O)Nc3ccn(-c4ccccc4)c(=O)c3)N2C(=O)[C@@H](NC(=O)c2cc3cc(C(F)(F)P(=O)(O)O)ccc3[nH]2)C1
3. CN(C(=O)[C@@H]1CC[C@@H]2CCN(CC(F)(F)F)C[C@H](NC(=O)c3cc4cc(C(F)(F)P(=O)(O)O)ccc4[nH]3)C(=O)N21)c1ccccc1

[out]
6.00 to 7.00
6.00 to 7.00
5.00 to 6.00

Provide pIC50 values for the following items, in order.
1. Cc1ccc2[nH]nc(C(=O)N3CC[C@H]4CC[C@@H](C(=O)N5C[C@H](c6ccccc6)[C@@H](C#N)C5)N4C(=O)[C@@H](NC(=O)c4ccc5ccc(C(F)(F)P(=O)(O)O)cc5c4)C3)c2c1 (relative stereo)
2. CC(=O)N1CC[C@H]2CC[C@@H](C(=O)N(C)c3cccc(C#N)c3)N2C(=O)[C@@H](NC(=O)c2cc3cc(C(F)(F)P(=O)(O)O)ccc3[nH]2)C1
3. CC(=O)N1CC[C@H]2CC[C@@H](C(=O)Nc3ccc4nnccc4c3)N2C(=O)[C@@H](NC(=O)c2ccc3ccc(C(F)(F)P(=O)(O)O)cc3c2)C1
4. C[C@H](C(=O)N1CC[C@H]2CC[C@@H](C(=O)N(C)c3ccccc3)N2C(=O)[C@@H](NC(=O)c2cc3cc(C(F)(F)P(=O)(O)O)ccc3[nH]2)C1)c1ccccc1

[out]
["6.00 to 7.00", "5.00 to 6.00", "5.00 to 6.00", "5.00 to 6.00"]

====

biological target: Recombinant STAT3 protein (STAT3(G127-I722)) (Homo sapiens); construct: Recombinant STAT3 protein (STAT3(G127-I722)); assay: STAT3 Fluorescence Polarization (FP) Assay; conditions: STAT3(G127-I722) 25 nM, probe 5-FAM-GpYLPQTV-NH2 2 nM, 45-minute incubation
pIC50: −log10 of the molar value.
VALUE KIND: pIC50

See these solved cases before continuing.
{"COMPOUND": "COc1cc(C2CN(C(=O)[C@@H]3CC[C@@H]4CCN(C(C)=O)C[C@H](NC(=O)c5cc6cc(C(F)(F)P(=O)(O)O)ccc6s5)C(=O)N43)C[C@@H]2C#N)ccn1 (relative stereo)", "pIC50": "5.00 to 6.00"}
{"COMPOUND": "CC(=O)N1CC[C@H]2CC[C@@H](C(=O)N(C)c3ccc4nnccc4c3)N2C(=O)[C@@H](NC(=O)c2ccc3ccc(C(F)(F)P(=O)(O)O)nc3c2)C1", "pIC50": "< 5.00"}
{"COMPOUND": "CC(C)CN1CC[C@H]2CC[C@@H](C(=O)N3C[C@@H](C#N)[C@H](c4ccccc4)C3)N2C(=O)[C@@H](NC(=O)c2cc3cc(C(F)(F)P(=O)(O)O)ccc3s2)C1 (relative stereo)", "pIC50": "6.00 to 7.00"}
{"COMPOUND": "O=C(N[C@H]1CN(CC(F)F)CC[C@H]2CC[C@@H](C(=O)N3C[C@H](c4ccccc4)[C@@H](C(F)F)C3)N2C1=O)c1cc2cc(C(F)(F)P(=O)(O)O)ccc2s1 (relative stereo)", "pIC50": "6.00 to 7.00"}

Recorded result, `CC(=O)N1CC[C@H]2CC[C@@H](C(=O)N3CC[C@@H](c4ccccc4)C3)N2C(=O)[C@@H](NC(=O)c2cc3cc(C(F)(F)P(=O)(O)O)ccc3s2)C1` , pIC50: 6.00 to 7.00
